- Tested on: MDA-MB-468 breast
- protocol.details: NCI tumour cell line growth inhibition, 48 h
parameter.measured: TGI (µM)
Response body: numeric value in µM, unit text excluded.

Please review the following examples before continuing.
CSc1ccc(/C=C2\C=C(CC(=O)NCc3ccc(C(=O)c4ccccc4)cc3)c3cc(F)ccc32)cc1 :: 7.4
COc1ccc(-c2cn[nH]c2-c2cc(OC)c3c(c2)OCCO3)cc1 :: 2.76
Cc1cc(-c2nnc3n2CCCCC3)c(C)n1-c1ccc(Cl)c(Cl)c1 :: 14
COc1cc2nc(-c3ccc(C(F)(F)F)cc3)cc(OCCCN3CCCCC3)c2cc1OC :: 3.29

Input line: Could you tell me which TGI is on file for CC(=O)Nc1ccc(NC(=O)Nc2cccc(-c3nc(-c4ccc(NC(=O)c5cccs5)cc4Cl)no3)c2)cc1C(F)(F)F ?
Output line: 1.73

###

- System: MDA-MB-468 breast
- protocol.details: NCI tumour cell line growth inhibition, 48 h
GI50 by entry:

# example entries with known answers
CCCCCCN(CCCCCC)CC(O)c1ccc2c3c(cccc13)CC2 (stereo not drawn) :: 3430 nM
CC(C)[C@H]1C(=O)N[C@@H](CCCN=C(N)N)C(=O)NCC(=O)N[C@@H](CC(=O)O)C(=O)N[C@H](Cc2ccccc2)C(=O)N1C :: 403 nM
COc1cc(Cn2c(-c3nonc3N)nc3ccccc32)ccc1C :: 228 nM
C=C(C)C(=O)O[C@H]1C[C@@]2(C)OC(=CC2=O)/C(C)=C\[C@H]2OC(=O)C(=C)[C@H]12 :: 622 nM
COc1ccc(C(=O)N2c3ccccc3Sc3ccccc32)c(C(F)(F)F)c1 :: 364 nM

Input line: Recorded GI50 for CCN(CCNc1ccc(C)c2sc3ccccc3c(=O)c12)CC(C)(C)O with MDA-MB-468 breast, please?
Output line: 1740 nM

Input line: // fetch MDA-MB-468 breast GI50 for COC(=O)CCC1=C(C)/C(=C/c2[nH]c(-c3ccc[nH]3)cc2OC)N=C1C
Output line: 1140 nM

Input line: // map NC(=O)c1ccc(C2C3=C(CCCC3=O)OC3=C2C(=O)c2ccccc2C3=O)cc1 (stereo not drawn) to recorded GI50 (system: MDA-MB-468 breast)
Output line: 201 nM

###

- Tested on: MDA-MB-468 breast
- protocol.details: NCI tumour cell line growth inhibition, 48 h
parameter.measured: TGI (µM)
I only need the number, in µM, no unit after it.

O=C1CC(=O)OC(c2ccc([N+](=O)[O-])cc2)O1 :: 3.48
CC(C)[C@H]1C(=O)N[C@@H](CCCN=C(N)N)C(=O)NCC(=O)N[C@@H](CC(=O)O)C(=O)N[C@H](Cc2ccccc2)C(=O)N1C :: 2.18
CN(C)C(=O)O[C@@H]1CN[C@@H](C#Cc2cc3ncnc(Nc4ccc(OCc5cccc(F)c5)c(Cl)c4)c3s2)C1 :: 12.7

Input line: Would you kindly share the measured TGI for CCC(C)[C@H]1OC(=O)[C@H](C(C)C)N(C)C(=O)[C@@H](C(C)C)OC(=O)[C@H](C(C)C)N(C)C(=O)[C@@H](C(C)CC)OC(=O)[C@H](C(C)C)N(C)C1=O (stereo not given in full) ?
Output line: 1.35

Origin of measurements: PubChem BioAssay (NCI)
